Every entry's value here was drawn from patent US12643887B2.

Molecular target: human CLK1 (Homo sapiens, UniProt P49759)
Construct: Recombinant human CLK1 (129-end); GST (N); purchased SignalChem C57-11G; host or cells: Sf9 insect cells
Sequence (P49759 129-484 limits assumed): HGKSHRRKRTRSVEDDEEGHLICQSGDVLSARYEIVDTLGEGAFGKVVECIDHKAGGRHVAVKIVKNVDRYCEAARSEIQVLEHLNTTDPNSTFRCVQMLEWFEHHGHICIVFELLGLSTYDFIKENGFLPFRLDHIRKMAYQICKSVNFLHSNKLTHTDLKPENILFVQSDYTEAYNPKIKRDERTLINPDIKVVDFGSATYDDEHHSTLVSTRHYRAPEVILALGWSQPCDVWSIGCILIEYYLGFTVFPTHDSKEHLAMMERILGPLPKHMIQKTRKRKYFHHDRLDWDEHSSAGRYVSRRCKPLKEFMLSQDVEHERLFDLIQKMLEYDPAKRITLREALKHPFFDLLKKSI
Assay: CLK1 enzyme assay (ADP-Glo)
Assay type: biochemical
resultType: IC50

> print(dat)
                          chemicalstructure                                       tgt  resulttype  observedresult
1  CC(=O)N(C1=N/C(=C\c2ccc3c(c2)OCO3)C(=O)N1)c1ccccc1  human CLK1 (Homo sapiens, UniProt P49759)        IC50  100 to 1000 nM

---

Parameter: IC50. Scope: all listed entries.
Biological target: human CLK1 (Homo sapiens)
Construct: Recombinant human CLK1 (129-end); GST (N); purchased SignalChem C57-11G; host or cells: Sf9 insect cells
Assay: CLK1 enzyme assay (ADP-Glo)
Type: biochemical
Details: ADP-Glo, ATP 10 μM; read-out: CLK1 IC50
resultType: IC50

> print(dat)
                                    molecule  resulttype    observedresult
 1  O=C1NC(Nc2ccc3ncsc3c2)=N/C1=C\c1ccc2cccnc2c1        IC50        > 10000 nM
 2  Cn1cnc2ccc(/C=C3\N=C(Nc4ccccc4)NC3=O)cc21        IC50          < 100 nM
 3  O=C1NC(Nc2ccc3ncsc3c2)=NC1Cc1ccc2ncsc2c1 (stereo not drawn)        IC50    100 to 1000 nM
 4    CC(C)NC1=N/C(=C\c2ccc3ncsc3c2)C(=O)N1C        IC50          < 100 nM
 5    O=C1NC(Nc2ccccc2)=N/C1=C\c1ccc2scnc2c1        IC50        > 10000 nM
 6  CN1C(=O)/C(=C/c2ccc3c(c2)OCO3)N=C1N(C)c1ccccc1        IC50  1000 to 10000 nM
 7  O=C1NC(Nc2ccc3nccnc3c2)=N/C1=C\c1ccc2ncsc2c1        IC50          < 100 nM
 8  O=C1NC(Nc2ccc3ncsc3c2)=N/C1=C\c1ccc2scnc2c1        IC50          < 100 nM
 9  O=C1NC(Nc2ccc3ncsc3c2)=N/C1=C\c1ccc2cc[nH]c2c1        IC50        > 10000 nM
10  CN(CCN1CCOCC1)C1=N/C(=C\c2ccc3ncsc3c2)C(=O)N1        IC50    100 to 1000 nM
11  CC(=O)N(C1=N/C(=C\c2ccc3ncsc3c2)C(=O)N1)c1ccc2ncsc2c1        IC50          < 100 nM
12  O=C1NC(Nc2ccc3ncsc3c2)=N/C1=C\c1ccc2nc[nH]c2c1        IC50          < 100 nM
13  O=C1/C(=C/c2ccc3c(c2)OCO3)N=C(N(Cc2ccccc2)c2ccccc2)N1Cc1ccccc1        IC50  1000 to 10000 nM
14    O=C1NC(Nc2ccccc2)=N/C1=C\c1ccc2occc2c1        IC50    100 to 1000 nM
15          NC1=N/C(=C\c2ccc3ncsc3c2)C(=O)N1        IC50          < 100 nM
